Cited source: patent US20060247250A1

Biological target: EphB4 (Homo sapiens, UniProt P54760)
Sequence (P54760 16-987): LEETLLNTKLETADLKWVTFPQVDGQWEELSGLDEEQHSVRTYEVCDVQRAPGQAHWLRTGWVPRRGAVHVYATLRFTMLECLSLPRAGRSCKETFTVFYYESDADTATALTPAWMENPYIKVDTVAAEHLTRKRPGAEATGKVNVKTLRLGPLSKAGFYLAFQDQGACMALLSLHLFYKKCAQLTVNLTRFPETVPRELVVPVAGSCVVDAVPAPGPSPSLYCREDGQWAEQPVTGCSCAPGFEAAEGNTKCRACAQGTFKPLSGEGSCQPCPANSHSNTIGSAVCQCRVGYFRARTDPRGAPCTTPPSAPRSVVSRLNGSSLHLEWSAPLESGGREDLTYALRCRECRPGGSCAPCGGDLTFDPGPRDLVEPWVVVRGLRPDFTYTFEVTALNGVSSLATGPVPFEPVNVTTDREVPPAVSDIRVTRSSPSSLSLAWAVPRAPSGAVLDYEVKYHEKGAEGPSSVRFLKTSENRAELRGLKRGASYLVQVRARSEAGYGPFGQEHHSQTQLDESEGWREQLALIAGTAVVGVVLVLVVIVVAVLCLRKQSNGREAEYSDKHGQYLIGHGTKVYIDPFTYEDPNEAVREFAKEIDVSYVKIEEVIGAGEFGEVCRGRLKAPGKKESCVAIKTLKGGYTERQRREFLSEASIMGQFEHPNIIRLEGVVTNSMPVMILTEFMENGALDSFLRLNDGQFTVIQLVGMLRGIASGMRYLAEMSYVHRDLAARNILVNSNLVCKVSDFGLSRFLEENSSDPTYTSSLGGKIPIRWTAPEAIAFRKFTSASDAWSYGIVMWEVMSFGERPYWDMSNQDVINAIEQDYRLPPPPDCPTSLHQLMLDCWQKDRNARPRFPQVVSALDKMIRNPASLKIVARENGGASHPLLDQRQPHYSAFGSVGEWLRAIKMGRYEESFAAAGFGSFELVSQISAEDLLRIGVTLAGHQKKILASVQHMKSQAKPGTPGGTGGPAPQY
pIC50: −log10 of the molar value.
Label yes (1) when pIC50 >= 7; otherwise no (0).

Lookup: Quick check, pIC50 >= 7? O=C(NCCN1CCCC1)c1ccc(Nc2ncc(NC(=O)c3cc(O)ccc3Cl)cn2)cc1 [drawing 208]
Found: yes (1)

Lookup: One more compound: Clc1cccc(Cl)c1CNc1cnc(Nc2cccc(OCCN3CCCC3)c2)nc1 [drawing 211]
Found: no (0)

Lookup: One more compound: O=C(Nc1cnc(Nc2cccc(OCCN3CCCC3)c2)nc1)c1c(Cl)cccc1Cl [drawing 202]
Found: no (0)

Lookup: One more compound: CC(C)N(CCO)C(=O)c1ccc(Nc2ncc(NC(=O)c3cc(O)ccc3Cl)cn2)cc1 [drawing 210]
Found: no (0)

Lookup: One more compound: O=C(Nc1cnc(Nc2ccc(OCCN3CCCC3)cc2)nc1)c1cc(O)ccc1Cl [drawing 200]
Found: no (0)

----------
Biological target: human c-Src (Homo sapiens, UniProt P12931)
Sequence (P12931 whole entry): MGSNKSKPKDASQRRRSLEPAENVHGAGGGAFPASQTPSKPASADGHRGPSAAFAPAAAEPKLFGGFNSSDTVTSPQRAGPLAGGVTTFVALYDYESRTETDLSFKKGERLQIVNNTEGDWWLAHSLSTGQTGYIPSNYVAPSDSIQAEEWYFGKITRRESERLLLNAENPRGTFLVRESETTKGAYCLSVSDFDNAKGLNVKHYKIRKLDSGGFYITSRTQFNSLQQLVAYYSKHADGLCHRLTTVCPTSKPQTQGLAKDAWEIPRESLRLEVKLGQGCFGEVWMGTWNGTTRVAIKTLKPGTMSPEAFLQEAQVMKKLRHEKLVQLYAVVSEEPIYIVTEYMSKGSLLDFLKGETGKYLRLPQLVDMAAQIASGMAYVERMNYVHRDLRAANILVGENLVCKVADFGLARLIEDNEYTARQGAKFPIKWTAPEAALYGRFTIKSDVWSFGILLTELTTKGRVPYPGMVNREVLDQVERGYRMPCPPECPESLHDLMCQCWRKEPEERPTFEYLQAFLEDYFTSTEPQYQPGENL
Experiment: Src kinase inhibition, luciferase-based residual ATP (KinaseGlo)
Conditions: recombinant human c-Src, ATP 3 μM, PTK2 substrate, 90 minutes at room temperature
Field: IC50. Provide a value for each of the compounds that follow.
Field note: include the unit after the figure.

Lookup: IC50 of O=C(Nc1cnc(Nc2ccc(OCCN3CCCC3)cc2)nc1)c1cc(O)ccc1Cl [XXXVIII] on human c-Src (Homo sapiens, UniProt P12931)?
Found: 0.027 µM

Lookup: One more compound: Cc1c(O)cccc1C(=O)Nc1cnc(Nc2ccc(C(=O)N3CCN(C)CC3)cc2)nc1 [XVII]
Found: 0.55 µM

Lookup: One more compound: Cc1cccc(C)c1C(=O)Nc1cnc(Nc2cccc(OCCN3CCCC3)c2)nc1 [XLIII]
Found: 0.099 µM

Lookup: One more compound: O=C(Nc1cc(O)ccc1Cl)c1cnc(Nc2ccc(OCCN3CCCC3)cc2)nc1C(F)(F)F [XXX]
Found: 1.34 µM
